# Tested on: HL-60(TB) leukemia
# test.description: NCI-60 one-dose screen, 48 h (100 = growth as untreated, 0 = no growth, -100 = all killed)
# test.parameters: 10 µM unless noted
The panel holds about 83,000 compounds, 20% with a hit somewhere; the sample as a whole holds those more often.
Please respond with reported growth for every item in the list.
State just the number; it will be interpreted in %.

compound `CS(=O)(=O)Nc1cc(-c2ccc3ncc(C#N)c(N[C@H](CO)c4ccccc4)c3c2)cnc1Cl` , growth observed: 25

compound `Clc1ccc2c(NCCCn3ccnc3)c3oc4ccccc4c3nc2c1` , growth observed: 40.4

compound `COC(=O)C1CN(S(=O)(=O)/N=C2\NC(=O)NC2=C(Cl)Cl)C1` , growth observed: 101

compound `COc1ccc(Cn2cc3c(c2-c2cc(OC)c(OC)c(OC)c2)CCCc2cnoc2-3)cc1` , growth observed: -5.47

compound `NS(=O)(=O)c1ccc(Nc2nc(SCC(=O)c3ccc(Cl)cc3)nc3ccccc23)cc1` , growth observed: 103

compound `c1cc(-c2nc3ccc4[nH]ncc4c3c3c2CCCC3)[nH]n1` , growth observed: 80.8

compound `O=C1Nc2ccc(Cl)cc2/C1=C/c1ccc(OCc2ccc(F)cc2)cc1` , growth observed: 94.6

compound `CCOP(=O)(OCC)OC[C@]12CCC(C)(C)C[C@H]1C1=CC[C@@H]3[C@@]4(C)C/C(=C\c5cccnc5)[C@H](OP(=O)(OCC)OCC)C(C)(C)[C@@H]4CC[C@@]3(C)[C@]1(C)CC2` , growth observed: -22.2

compound COc1cc(C2CC(c3ccc(Nc4nc(NCCO)nc(Nc5ccc(Cl)cc5)n4)cc3)=Nc3c(N)nc(N)nc3N2)cc(OC)c1OC (stereo not drawn) , growth observed: 25

compound `N=c1c2cc(-c3ccccc3)oc2ncn1/N=C/c1ccc(Cl)cc1` , growth observed: 116

compound `Cc1ccc(NC(=O)c2ccc(CN3CCN(C)CC3)c(I)c2)cc1Oc1ccc(-c2[nH]nc3ncnc(N)c23)cc1` , growth observed: 118

compound `CC(=O)c1ccc(Nc2nc(SCC(C)C)nc(-c3ccccc3)c2C#N)cc1` , growth observed: 101

compound `COc1cc(/C=N/n2cnc3oc(-c4ccccc4)cc3c2=N)cc(CN2CCN(C)CC2)c1O` , growth observed: 110

compound CCNC(=O)N1CCc2cc(OC)c(OCCc3ccc(OC)c(N)c3)cc2C1c1cc(C)c(C)cc1C (stereo not drawn) , growth observed: 22.1

compound CCN1C(=S)N(CC)C2C1NN=C1SC(c3ccccc3)=CC(=O)N12 (stereo not drawn) , growth observed: 86.9

compound `CCCCCCNC(=O)Oc1ccc(/C(=C(\C)c2ccc(Cl)cc2)c2ccc(OCCN(C)C)cc2)cc1` , growth observed: -8.4

compound `CC(C)(C)OC(=O)N1CCN(S(=O)(=O)/N=C2\NC(=O)NC2=C(Cl)Cl)CC1` , growth observed: 40.3

compound COc1cc2nc(-c3ccc(C(F)(F)F)cc3)cc(OCCCNCC3CCCO3)c2cc1OC (stereo not drawn) , growth observed: 11.9

* * *

# Tested on: HL-60(TB) leukemia
# test.description: NCI-60 one-dose screen, 48 h
# test.parameters: 10 µM unless noted
Compounds without any hit were thinned out: in the full panel of roughly 83,000, 20% have a hit. Calls of active or inactive are those of the source. How the source made its calls: active means growth percent below 10; inactive means the rest.
Hi! Could you answer with just one of these? 1.0 for active, 0.0 for inactive

[in] Tell me the assay call for `COc1cc(/C=C2/C(=O)Nc3ccc(Cl)cc32)ccc1OCc1ccc(Cl)cc1` please.
[out] 0.0

[in] Tell me the assay call for `COC[C@]12CC[C@@H](C)[C@H](C)[C@H]1C1=CC[C@@H]3[C@@]4(C)CCCNC(C)(C)[C@@H]4CC[C@@]3(C)[C@]1(C)CC2` please.
[out] 1.0

[in] Tell me the assay call for `COc1ccc(N)cc1C(=O)Nc1cccc(-c2cc(=O)c3c(OC)c(OC)c(OC)cc3o2)c1` please.
[out] 0.0

[in] Tell me the assay call for `C=C1CC[C@@H]2[C@](C)(CO)[C@H](O)CC[C@@]2(C)[C@@H]1C/C(O)=C1\CCOC1=O` please.
[out] 0.0

[in] Tell me the assay call for `COc1cc(Nc2c(C#N)cnn3cc(-c4cnn(CC(C)(C)O)c4)cc23)ccc1Cl` please.
[out] 0.0

[in] Tell me the assay call for `Cc1cccc2sc(/N=C(\N)C(Br)Br)nc12` please.
[out] 1.0

[in] Tell me the assay call for `Cc1csc(Nc2cccc(Nc3nc(C)cs3)c2)n1` please.
[out] 0.0

[in] Tell me the assay call for `CC[C@]12C=CCN3CC[C@@]4(c5cc(NC(=O)COc6cc(O)c7c(=O)cc(-c8ccccc8)oc7c6)c(OC)cc5N(C)[C@H]4[C@@](O)(C(=O)OC)[C@@H]1OC(C)=O)[C@@H]32` please.
[out] 1.0

[in] Tell me the assay call for CCCC(=O)NC(c1cccnc1)c1cc(C(C)=O)c2cccnc2c1O (centres undefined) please.
[out] 0.0

[in] Tell me the assay call for `CCCCc1nc2c(N)nc3ccccc3c2n1Cc1ccc(OC)cc1` please.
[out] 0.0

[in] Tell me the assay call for `COc1ccc2c(c1)c(-c1cc(N)n3nc(-c4cn(C)c5ccc(OC)cc45)cc3n1)cn2C` please.
[out] 1.0

[in] Tell me the assay call for `O=C(NNc1nc2cc(F)c(F)cc2n2cccc12)c1ncccn1` please.
[out] 1.0

[in] Tell me the assay call for `COc1cc(-c2nc(SCc3ccc(C)cc3)[nH]c(=O)c2C#N)ccc1OCc1ccccc1` please.
[out] 0.0

[in] Tell me the assay call for Cc1cc(C(NC(=O)CCCCCNc2cccc3c2C(=O)N(C2CCC(=O)NC2=O)C3=O)c2cccnc2)c(O)c2ncccc12 (centres undefined) please.
[out] 1.0

[in] Tell me the assay call for COc1c(N2CC3CCCNC3C2)c(F)cc2c(=O)c(C(=O)N/N=C/c3c[nH]c4ccccc34)cn(C3CC3)c12 (centres undefined) please.
[out] 0.0

[in] Tell me the assay call for `CS(=O)(=O)c1nccc(-c2c(-c3ccc(F)c(OCCc4ccc(F)cc4)c3)nc3sccn23)n1` please.
[out] 1.0

[in] Tell me the assay call for `CC(=O)c1cc(C(=O)c2ccc(Br)cc2)n2cc(C)cc(C)c12` please.
[out] 0.0

[in] Tell me the assay call for `CCCCCc1ccc(S(=O)(=O)Nc2cccc(-c3csc(NC(=O)CN4CCN(C)CC4)n3)c2)cc1` please.
[out] 0.0

[in] Tell me the assay call for `O=C(Cn1c(-c2ccccc2)nc2cc(Cl)c(Cl)cc21)N=Nc1c(O)[nH]c2ccc(Cl)cc12` please.
[out] 0.0

* * *

# Tested on: HL-60(TB) leukemia
# test.description: NCI-60 one-dose screen, 48 h (100 = growth as untreated, 0 = no growth, -100 = all killed)
# test.parameters: 10 µM unless noted
Compounds without any hit were thinned out: in the full panel of roughly 83,000, 20% have a hit. Active and inactive are the calls of the source. The calls were made as follows: active = growth percent below 10; inactive = the rest.
parameter.measured: growth

compound `COc1ccc(NC(=O)c2sc3nc(-c4cnccn4)cc(-c4cccs4)c3c2N)cc1` , growth observed: 56.2% (inactive)

compound `Clc1ccc2oc3c(NCCCn4ccnc4)c4ccccc4nc3c2c1` , growth observed: 29% (inactive)

compound `Brc1ccc(-c2cc(-c3ccc4c(c3)OC=CO4)n[nH]2)s1` , growth observed: 78.8% (inactive)

compound `O=C(CN1C(=O)S/C(=C\c2ccccc2)C1=O)Nc1ccc(C(=O)/C=C/c2cc3ccccc3nc2Cl)cc1` , growth observed: 80.2% (inactive)

compound `CCOC(=O)c1c(NC(=O)c2cccc(C(F)(F)F)c2)sc2cc(O)ccc12` , growth observed: 46.9% (inactive)

compound `COc1cc(-c2nn(C(C)(C)C)cc2-c2ccnc(NCCCNS(=O)(=O)c3ccc(F)cc3)n2)ccc1Cl` , growth observed: 101% (inactive)

compound `O=[N+]([O-])c1ccc(NC(=S)NNC(=S)Nc2ccc(Br)cc2)cc1` , growth observed: 93.1% (inactive)

compound `C[C@@H]1CCC/C=C/[C@H]2C[C@@H](O)C[C@@H]2[C@@H](O)/C=C/C(=O)O1` , growth observed: -22.7% (active)

compound `O=C(CSc1nnc(-c2ccc3nc(-c4ccc(Cl)cc4)[nH]c3c2)o1)Nc1ccc(C(=O)/C=C/c2ccc(Cl)cc2)cc1` , growth observed: 86% (inactive)

compound `O=S(=O)(Nc1ccc(-n2cnc3cc(-c4ccc(O)cc4)ccc32)cc1)C1CC1` , growth observed: 56.9% (inactive)

compound `COc1ccc(Cn2cc3c(c2-c2cc(OC)c(OC)c(OC)c2)CCCc2cnoc2-3)cc1N` , growth observed: -9.82% (active)

compound CC1CC(=O)C2=C(C1)Nc1ccc(Br)cc1CC2c1c[nH]c2ccc(Br)cc12 (configuration not stated) , growth observed: 21.2% (inactive)

compound Nc1nc(N)c2c(n1)NC(c1ccccc1)CC(c1ccc(Nc3nc(NCCO)nc(Nc4ccc(Cl)cc4)n3)cc1)=N2 (configuration not stated) , growth observed: 2.55% (active)

compound `CN1CCN(Cc2ccc(NC(=O)c3cncc(C#Cc4cnc5ccc(OCC6(C)COC6)nn45)c3)cc2C(F)(F)F)CC1` , growth observed: -27.6% (active)

compound `CC(C)=CCc1c(O)c(CC=C(C)C)c2c(c1O)C(=O)C1=C[C@@H]3C[C@H]4C(C)(C)O[C@@](C/C=C(\C)C(=O)O)(C3=O)[C@@]14O2` , growth observed: -14.1% (active)

compound `N=c1c2cc(-c3ccccc3)oc2ncn1/N=C/c1ccccc1` , growth observed: 58.8% (inactive)

compound `COc1ccc(-c2cc(-c3cccc4ccccc34)n3c(n2)nc2ccccc23)cc1OC` , growth observed: -7.71% (active)

compound C/C(=C(/C)C1CC1CCN(C(=O)c1ccccn1)S(=O)(=O)c1ccc(C)cc1)C1CCCCC1 (configuration not stated) , growth observed: 97.4% (inactive)

compound `CCOC(=O)c1ccc(N/C=C/C(=O)c2ccccc2)cc1` , growth observed: 84.3% (inactive)

compound C[C@@H]1C[C@H]2C(=O)OCC(NC(=O)[C@H](Cc3cc(F)cc(F)c3)NC(=O)Nc3ccc(Cl)cc3F)C(=O)N3CCC[C@H]3C(=O)N3CCCC[C@H]3C(=O)N[C@@H](C)C(=O)N2C1 (some centres not stated) , growth observed: 6.2% (active)

compound `O=S(=O)(NCCNc1nccc(-n2cnc3ccccc32)n1)c1ccc(Cl)cc1` , growth observed: 113% (inactive)

compound `CS(=O)(=O)Nc1cc(-c2ccc3ncc(C#N)c(NCc4ccccc4)c3c2)cnc1Cl` , growth observed: -29.2% (active)

compound `CNC(=O)c1c(NC(=O)c2ccc(F)cc2F)sc2c1CCC(=O)C2` , growth observed: -12.6% (active)

compound `Cn1cc(-c2nc(N)nnc2-c2c[nH]c3ccccc23)c2cc(Br)ccc21` , growth observed: -0.377% (active)

compound CCCCN1C(=O)/C(=c2\sc3n(c2=O)C2C(NN=3)N(CC)C(=O)N2CC)c2cccc(C)c21 (configuration not stated) , growth observed: 2.95% (active)

compound `Cc1csc(/N=C(N)/N=C(\N)c2cccnc2)n1` , growth observed: 65.9% (inactive)

compound `CCNC(=O)Oc1ccc(/C(=C(/C)c2ccc(Cl)cc2)c2ccc(OCCN3CCCCCC3)cc2)cc1` , growth observed: 1.41% (active)

compound `Oc1ccc(CSc2nnc(-c3ccc(Cl)cc3)o2)c2cccnc12` , growth observed: 12.6% (inactive)

compound `COc1ccc(NC(=O)Cn2cc(CN3C(=O)c4ccc([N+](=O)[O-])cc4C3=O)nn2)cc1` , growth observed: 95.1% (inactive)

compound `C(=C(\C1=NCCN1)n1cnc2ccccc21)/c1ccc2ccccc2c1` , growth observed: 50.5% (inactive)

compound `CS(=O)(=O)c1ncc(-c2ccccc2)cn1` , growth observed: 103% (inactive)

compound `COc1cccc(-c2nn(-c3ccccc3)cc2-c2ccnc(N3CCN(C(=O)Nc4ccc(F)cc4)CC3)c2)c1` , growth observed: 11.2% (inactive)

compound `CCn1c(SCC(=O)Nc2cccc(C(=O)/C=C/c3ccc(C)cc3)c2)nc2ccccc2c1=O` , growth observed: 92% (inactive)

compound `COc1cc2oc(-c3cccc(NC(=O)c4cc(NC(=O)[C@H](C)N)ccc4Cl)c3)cc(=O)c2c(OC)c1OC` , growth observed: 97.2% (inactive)

compound `O=S(=O)(NCCCNc1nccc(-c2[nH]c(-c3ccccc3)nc2-c2ccc(Cl)c(O)c2)n1)c1cccc(F)c1` , growth observed: 35.6% (inactive)

compound CCC1=Cc2cc(OC)ccc2OC12C=Cc1cc(OC)ccc1O2 (configuration not stated) , growth observed: -1.93% (active)

compound `Cn1cc(-c2nc(N)nnc2-c2c[nH]c3ccc(Br)cc23)c2cc(Br)ccc21` , growth observed: 3.35% (active)

Data origin: PubChem BioAssay (NCI)
